tgt: T1, HLA-A*02:01 (peptide-receptive MHC class I monomer from UV-ligand exchange) (human)
T1 construct: Monomers were captured on streptavidin-coated plates
experimental details: UV-exchange ELISA (anti-b2m); exchange yield grade: + >=10%, ++ >=20%, +++ >=50%, ++++ >=75%

{"binder": "KVFPGKISV [peptide KVFPGKISV (SEQ ID NO 86)]", "peptide exchange yield": "20 to 50%"}
{"binder": "AILDAHIEV [peptide AILDAHIEV (SEQ ID NO 95)]", "peptide exchange yield": "≥ 75%"}
{"binder": "AMAEMVLQV [peptide AMAEMVLQV (SEQ ID NO 190)]", "peptide exchange yield": "50 to 75%"}
{"binder": "TLQPVDNSTISL [peptide TLQPVDNSTISL (SEQ ID NO 117)]", "peptide exchange yield": "20 to 50%"}
{"binder": "ALSDETWGL [peptide ALSDETWGL (SEQ ID NO 146)]", "peptide exchange yield": "20 to 50%"}
{"binder": "KILVSLIEV [peptide KILVSLIEV (SEQ ID NO 102)]", "peptide exchange yield": "50 to 75%"}
{"binder": "LQLDKEFQL [peptide LQLDKEFQL (SEQ ID NO 15)]", "peptide exchange yield": "50 to 75%"}
{"binder": "SLAPTPVSA [peptide SLAPTPVSA (SEQ ID NO 38)]", "peptide exchange yield": "20 to 50%"}
{"binder": "TLDAAQPRV [peptide TLDAAQPRV (SEQ ID NO 43)]", "peptide exchange yield": "20 to 50%"}
{"binder": "KMSEKILLL [peptide KMSEKILLL (SEQ ID NO 186)]", "peptide exchange yield": "50 to 75%"}
{"binder": "GVAGGSILKGV [peptide GVAGGSILKGV (SEQ ID NO 134)]", "peptide exchange yield": "≥ 75%"}
{"binder": "YQFDKVGILTL [peptide YQFDKVGILTL (SEQ ID NO 149)]", "peptide exchange yield": "50 to 75%"}
{"binder": "ALMLQGVDLL [peptide ALMLQGVDLL (SEQ ID NO 8)]", "peptide exchange yield": "50 to 75%"}
{"binder": "VLVDDDGIKVV [peptide VLVDDDGIKVV (SEQ ID NO 159)]", "peptide exchange yield": "20 to 50%"}
{"binder": "TLLGGKEAQALGV [peptide TLLGGKEAQALGV (SEQ ID NO 175)]", "peptide exchange yield": "50 to 75%"}
{"binder": "LTIEDGIFEV [peptide LTIEDGIFEV (SEQ ID NO 83)]", "peptide exchange yield": "50 to 75%"}
